Molecular target: T1, human FcRH5 protein fragment (soluble) (human, UniProt Q96RD9 16-851)
T1 construct: whole entry named; also called soluble human FcRH5; Human FcRH5 (BIACORE analyte)
T1 sequence: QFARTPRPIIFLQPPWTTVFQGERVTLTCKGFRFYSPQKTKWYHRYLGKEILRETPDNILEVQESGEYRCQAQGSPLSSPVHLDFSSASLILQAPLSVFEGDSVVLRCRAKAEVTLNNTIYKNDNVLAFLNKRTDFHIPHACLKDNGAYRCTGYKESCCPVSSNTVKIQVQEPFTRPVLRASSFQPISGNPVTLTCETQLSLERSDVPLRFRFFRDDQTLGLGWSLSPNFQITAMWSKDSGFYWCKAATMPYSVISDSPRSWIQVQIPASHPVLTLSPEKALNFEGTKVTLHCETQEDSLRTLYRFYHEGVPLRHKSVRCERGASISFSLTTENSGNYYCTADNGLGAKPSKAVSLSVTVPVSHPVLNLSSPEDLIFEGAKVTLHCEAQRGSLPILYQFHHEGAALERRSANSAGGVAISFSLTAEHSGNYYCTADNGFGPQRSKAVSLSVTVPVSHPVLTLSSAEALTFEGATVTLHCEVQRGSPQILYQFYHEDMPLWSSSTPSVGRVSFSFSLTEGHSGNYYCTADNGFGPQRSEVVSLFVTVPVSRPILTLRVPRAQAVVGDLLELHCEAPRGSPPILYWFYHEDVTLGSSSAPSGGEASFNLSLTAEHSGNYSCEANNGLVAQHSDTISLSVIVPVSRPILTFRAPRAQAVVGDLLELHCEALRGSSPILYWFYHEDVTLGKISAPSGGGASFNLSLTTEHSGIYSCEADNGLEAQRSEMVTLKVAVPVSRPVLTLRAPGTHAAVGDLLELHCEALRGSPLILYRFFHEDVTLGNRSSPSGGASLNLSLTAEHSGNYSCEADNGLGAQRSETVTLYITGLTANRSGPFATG
Experiment: SPR (BIACORE), IgG captured via anti-human IgG, FcRH5 protein fragment as analyte (100 and 500 nM)

{"binder": "hu1G7.v1 heavy chain W52H with light chain of hu1G7.v1.5 (antibody, V domains shown, human IgG) VH: EVQLVESGPGLVKPSETLSLTCTVSGFSLTRFGVHWVRQPPGKGLEWLGVIHRGGSTDYNAAFMSRLTISKDNSKNQVSLKLSSVTAADTAVYYCSNHYYGSSDYALDNWGQGTLVTVSS VL: DIQMTQSPSSLSASVGDRVTITCKASQDVSNIVVWFQQKPGKSPKLLIYSGYYRYTGVPSRFSGSGSGTDFTLTISSLQPEDFATYYCQQQFQPPYTFGQGTKVEIK", "Kd": "67.3 nM"}
{"binder": "hu1G7.v1 heavy chain W52H with light chain of hu1G7.v1.4 (antibody, V domains shown, human IgG) VH: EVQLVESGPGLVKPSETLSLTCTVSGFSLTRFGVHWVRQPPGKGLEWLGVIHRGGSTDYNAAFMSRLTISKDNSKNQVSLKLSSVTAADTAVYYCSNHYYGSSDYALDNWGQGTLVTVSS VL: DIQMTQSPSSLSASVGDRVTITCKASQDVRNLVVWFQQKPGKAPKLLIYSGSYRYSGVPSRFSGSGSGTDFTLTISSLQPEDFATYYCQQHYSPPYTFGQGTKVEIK", "Kd": "60.4 nM"}
{"binder": "hu1G7.v1 heavy chain M64L with light chain of hu1G7.v1.3 (antibody, V domains shown, human IgG) VH: EVQLVESGPGLVKPSETLSLTCTVSGFSLTRFGVHWVRQPPGKGLEWLGVIWRGGSTDYNAAFLSRLTISKDNSKNQVSLKLSSVTAADTAVYYCSNHYYGSSDYALDNWGQGTLVTVSS VL: DIQMTQSPSSLSASVGDRVTITCKASQDVRNIVVWFQQKPGKAPKLLIYSGSYRYSGVPSRFSGSGSGTDFTLTISSLQPEDFATYYCQQQYSPPYTFGQGTKVEIK", "Kd": "2.4 nM"}
{"binder": "hu1G7.v1 heavy chain M64F with light chain of hu1G7.v1.3 (antibody, V domains shown, human IgG) VH: EVQLVESGPGLVKPSETLSLTCTVSGFSLTRFGVHWVRQPPGKGLEWLGVIWRGGSTDYNAAFFSRLTISKDNSKNQVSLKLSSVTAADTAVYYCSNHYYGSSDYALDNWGQGTLVTVSS VL: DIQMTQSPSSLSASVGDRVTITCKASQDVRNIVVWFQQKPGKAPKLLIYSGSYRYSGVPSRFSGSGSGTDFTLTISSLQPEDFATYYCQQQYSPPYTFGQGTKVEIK", "Kd": "2.2 nM"}
{"binder": "hu1G7.v87 (antibody, V domains shown, Human IgG) VH: EVQLVESGPGLVKPSETLSLTCTVSGFSLTRFGVHWVRQPPGKGLEWLGVIWRGGSTDYNAAFVSRLTISKDNSKNQVSLKLSSVTAADTAVYYCSNHYYGSSDYALDNWGQGTLVTVSS VL: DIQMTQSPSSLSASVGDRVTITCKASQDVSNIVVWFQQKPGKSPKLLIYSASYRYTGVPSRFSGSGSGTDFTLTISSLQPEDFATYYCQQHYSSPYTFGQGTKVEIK", "Kd": "27.4 nM"}
